System: ragweed (common ragweed, Ambrosia elatior)
PROTOCOL NOTES: Test A postemergence, visual plant response rating
Type: in vivo
RECORDED CONDITIONS: Postemergence, 125 g ai/ha; 0 to 100 scale (0 no effect, 100 complete control)

| COMPOUND | Ragweed plant response rating |
| --- | --- |
| CCO/N=C(\c1c(O)c(C)nn(C)c1=O)c1ccc(F)c2ccccc12 [Compound 85] | 90 |
| CO/N=C(/c1cscc1C)c1c(O)c(C)nn(C)c1=O [Compound 140] | 50 |
| CON=C(c1ccccc1C1CC1)c1c(O)c(C)nn(C)c1=O [Compound 105] | 90 |
| CON=C(c1c(O)c(C)nn(C)c1=O)c1cccc2sccc12 [Compound 58] | 50 |
| CON=C(c1c(O)c(C)nn(C)c1=O)c1cccc2ccoc12 [Compound 61] | 10 |
| CCCO/N=C(/c1c(O)c(C)nn(C)c1=O)c1cccc2ccccc12 [Compound 81] | 80 |
| Cc1nn(C)c(=O)c(C(=NOCC=CCl)c2ccc(F)c3ccccc23)c1O [Compound 107] | 80 |
| CO/N=C(/c1cccc(C)c1C)c1c(O)c(C)nn(C)c1=O [Compound 23] | 40 |
| CCO/N=C(/c1c(O)c(Cl)nn(C)c1=O)c1cccc2ccccc12 [Compound 147] | 100 |
